# METHOD NOTES: in vitro
# Format: cell-based, human
# RUN PARAMETERS: human
OUTCOME MEASURE: IC50 at 48 h

Field request: IC50 at 48 h | item: CCCCCC=CC(O)CCc1ccc(O)c(OC)c1 (stereo not shown) [M6]
> 100 µM
